Target: hERG channels (Homo sapiens (Human), UniProt Q12809)
Sequence (Q12809 whole entry): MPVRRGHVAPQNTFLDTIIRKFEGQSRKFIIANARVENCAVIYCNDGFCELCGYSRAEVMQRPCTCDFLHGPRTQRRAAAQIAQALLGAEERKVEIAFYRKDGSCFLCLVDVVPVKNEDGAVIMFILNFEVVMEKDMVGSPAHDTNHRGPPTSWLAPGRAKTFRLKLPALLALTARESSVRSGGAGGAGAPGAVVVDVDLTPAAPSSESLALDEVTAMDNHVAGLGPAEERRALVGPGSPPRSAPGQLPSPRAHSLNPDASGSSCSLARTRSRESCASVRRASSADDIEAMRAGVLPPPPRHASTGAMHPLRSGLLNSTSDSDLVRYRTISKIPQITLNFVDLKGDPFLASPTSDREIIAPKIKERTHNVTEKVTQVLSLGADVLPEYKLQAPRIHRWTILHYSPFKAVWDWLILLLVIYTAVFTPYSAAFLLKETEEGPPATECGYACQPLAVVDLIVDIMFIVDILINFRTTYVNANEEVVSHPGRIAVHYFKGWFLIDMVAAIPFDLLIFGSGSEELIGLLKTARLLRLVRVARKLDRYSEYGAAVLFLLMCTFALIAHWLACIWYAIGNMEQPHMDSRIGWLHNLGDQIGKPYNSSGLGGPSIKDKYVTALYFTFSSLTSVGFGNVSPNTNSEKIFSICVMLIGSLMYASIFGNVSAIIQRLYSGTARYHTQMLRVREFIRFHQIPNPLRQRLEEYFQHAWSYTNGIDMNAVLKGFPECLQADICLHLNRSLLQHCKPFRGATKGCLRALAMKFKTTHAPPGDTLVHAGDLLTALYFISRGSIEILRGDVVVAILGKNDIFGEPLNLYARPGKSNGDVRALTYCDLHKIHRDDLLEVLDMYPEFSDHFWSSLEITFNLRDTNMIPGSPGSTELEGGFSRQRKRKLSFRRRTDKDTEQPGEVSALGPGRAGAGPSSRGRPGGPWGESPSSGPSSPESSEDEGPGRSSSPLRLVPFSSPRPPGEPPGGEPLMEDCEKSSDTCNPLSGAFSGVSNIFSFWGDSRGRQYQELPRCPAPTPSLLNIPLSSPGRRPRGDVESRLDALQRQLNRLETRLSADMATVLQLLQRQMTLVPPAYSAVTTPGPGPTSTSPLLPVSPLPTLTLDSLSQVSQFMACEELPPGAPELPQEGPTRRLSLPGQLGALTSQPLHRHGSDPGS
Experiment: hERG Manual Patch Clamp Assay
Type: cell-based
Conditions: human, HEK 293 cells stably expressing hERG channels, pH 7.4, 1 uM, read-out: hERG EP % Inh @ 1 uM
measured_metric: inhibition at 1 µM (%)

smiles_str: COc1cc(C#N)ccc1-n1cc(CN2CCO[C@H](c3ccc4c(c3C)COC4=O)C2)cn1
subject_of_test: hERG channels (Homo sapiens (Human), UniProt Q12809)
measured_metric: inhibition at 1 µM
quantitative_result: 43
//
smiles_str: Cc1cc(-n2cc(CN3CCN(C)[C@H](c4ccc5c(c4C)COC5=O)C3)cn2)ncc1C#N
subject_of_test: hERG channels (Homo sapiens (Human), UniProt Q12809)
measured_metric: inhibition at 1 µM
quantitative_result: 8.4
//
smiles_str: Cc1c([C@@H]2CN(Cc3cnc(-n4cnc(C(F)(F)F)c4)nc3)CCN2)ccc2c1COC2=O
subject_of_test: hERG channels (Homo sapiens (Human), UniProt Q12809)
measured_metric: inhibition at 1 µM
quantitative_result: 20
//
smiles_str: Cc1c([C@@H]2CN(Cc3cn(-c4ccnc(C(F)F)c4)c(=O)n3C)C[C@H](C)N2)ccc2c1COC2=O
subject_of_test: hERG channels (Homo sapiens (Human), UniProt Q12809)
measured_metric: inhibition at 1 µM
quantitative_result: 5.4
//
smiles_str: Cc1cn(-c2ccc(CN3CCN[C@H](c4ccc5c(c4C)COC5=O)C3)cn2)nc1C#N
subject_of_test: hERG channels (Homo sapiens (Human), UniProt Q12809)
measured_metric: inhibition at 1 µM
quantitative_result: 36
//
smiles_str: COc1c(CN2CCN[C@H](c3ccc4c(c3C)COC4=O)C2)cnn1-c1cc(C)c(C#N)cn1
subject_of_test: hERG channels (Homo sapiens (Human), UniProt Q12809)
measured_metric: inhibition at 1 µM
quantitative_result: 38
//
smiles_str: Cc1cc(-n2cc(CN3C[C@@H](c4ccc5c(c4C)COC5=O)N[C@@H](C)C3)nn2)ncc1C#N
subject_of_test: hERG channels (Homo sapiens (Human), UniProt Q12809)
measured_metric: inhibition at 1 µM
quantitative_result: 0.98
//
smiles_str: Cc1cn(-c2ncc(CN3CCN[C@H](c4ccc5c(c4C)COC5=O)C3)cn2)c(C)n1
subject_of_test: hERG channels (Homo sapiens (Human), UniProt Q12809)
measured_metric: inhibition at 1 µM
quantitative_result: 6.6
//
smiles_str: COc1nn(-c2ccc(CN3CCN[C@H](c4ccc5c(c4C)COC5=O)C3)cn2)cc1C#N
subject_of_test: hERG channels (Homo sapiens (Human), UniProt Q12809)
measured_metric: inhibition at 1 µM
quantitative_result: 56
//
smiles_str: Cc1nc(-n2cc(CN3CCN[C@H](c4ccc5c(c4C)COC5=O)C3)cn2)ncc1C#N
subject_of_test: hERG channels (Homo sapiens (Human), UniProt Q12809)
measured_metric: inhibition at 1 µM
quantitative_result: 2.2
//
smiles_str: Cc1ncn(-c2ncc(CN3C[C@@H](c4ccc5c(c4C)COC5=O)N[C@@H](C)C3)cn2)c1C
subject_of_test: hERG channels (Homo sapiens (Human), UniProt Q12809)
measured_metric: inhibition at 1 µM
quantitative_result: 4.3
//
smiles_str: Cc1c([C@@H]2CN(Cc3ccc(-n4cc(C#N)c(OC(F)F)n4)nc3)CCN2)ccc2c1COC2=O
subject_of_test: hERG channels (Homo sapiens (Human), UniProt Q12809)
measured_metric: inhibition at 1 µM
quantitative_result: 75
//
smiles_str: Cc1cn(-c2ccc(CN3CCN[C@H](c4ccc5c(c4C)COC5=O)C3)nn2)cn1
subject_of_test: hERG channels (Homo sapiens (Human), UniProt Q12809)
measured_metric: inhibition at 1 µM
quantitative_result: 10
//
smiles_str: Cc1cn(-c2ncc(CN3CCN[C@H](c4ccc5c(c4C)COC5=O)C3)cc2F)cn1
subject_of_test: hERG channels (Homo sapiens (Human), UniProt Q12809)
measured_metric: inhibition at 1 µM
quantitative_result: 7.8
//
smiles_str: COc1cc(-n2cnc(CN3C[C@@H](c4ccc5c(c4C)COC5=O)N[C@@H](C)C3)c2)ccn1
subject_of_test: hERG channels (Homo sapiens (Human), UniProt Q12809)
measured_metric: inhibition at 1 µM
quantitative_result: 7.8
